Source of measurements: patent US20240132624A1

# assayed.system: T1, cyno FcRn/b2M (cyno, UniProt Q8SPV9 24-297; Q8SPW0 21-119, biotinylated)
# T1 construct: bought recombinant biotinylated protein (Immunitrack ITF05 or ACRO FCM-C82W5); also called cFcRn; cFcRn/cb2M
# T1 sequence (Q8SPV9 24-297 limits assumed, chain 1 of 2): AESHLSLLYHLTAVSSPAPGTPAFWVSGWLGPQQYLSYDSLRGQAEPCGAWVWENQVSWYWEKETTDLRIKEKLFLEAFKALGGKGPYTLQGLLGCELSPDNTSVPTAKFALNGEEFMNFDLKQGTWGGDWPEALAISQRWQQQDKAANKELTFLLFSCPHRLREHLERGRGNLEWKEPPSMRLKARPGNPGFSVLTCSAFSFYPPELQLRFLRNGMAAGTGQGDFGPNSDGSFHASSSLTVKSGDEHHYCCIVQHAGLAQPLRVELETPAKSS
# T1 sequence (Q8SPW0 21-119 limits assumed, chain 2 of 2): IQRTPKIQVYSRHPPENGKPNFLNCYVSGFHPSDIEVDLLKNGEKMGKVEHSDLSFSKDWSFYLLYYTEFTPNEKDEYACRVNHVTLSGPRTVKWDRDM
# assay.explanation: SPR pH 7.4;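 further: surface plasmon resonance kinetics, periplasmic extracts diluted 1:10 flowed over immobilized target at 25 °C, 120 s association then 600–3600 s dissociation, buffer with 150 mM NaCl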
readout.label: koff (s⁻¹)

1) T0263018B11 T28Y (VHH, name in Kabat numbering, FLAG3-His6 tagged) VHH: EVQLVESGGGVVQPGGSLRLSCAASGFYFSSYAMYWVRQAPGKGLEWVSAISSGGGSTDYADSVKGRFTISRDNSKNTLYLQMNSLRPEDTALYYCAADTLYTSLTWYSYWGQGTLVTVSS | 0.042
2) T0263018B11 S52aR (VHH, name in Kabat numbering, FLAG3-His6 tagged) VHH: EVQLVESGGGVVQPGGSLRLSCAASGFTFSSYAMYWVRQAPGKGLEWVSAISRGGGSTDYADSVKGRFTISRDNSKNTLYLQMNSLRPEDTALYYCAADTLYTSLTWYSYWGQGTLVTVSS | 0.091
3) T0263018B11 S31T (VHH, name in Kabat numbering, FLAG3-His6 tagged) VHH: EVQLVESGGGVVQPGGSLRLSCAASGFTFSTYAMYWVRQAPGKGLEWVSAISSGGGSTDYADSVKGRFTISRDNSKNTLYLQMNSLRPEDTALYYCAADTLYTSLTWYSYWGQGTLVTVSS | 0.018
4) T0263018B11 S52aP (VHH, name in Kabat numbering, FLAG3-His6 tagged) VHH: EVQLVESGGGVVQPGGSLRLSCAASGFTFSSYAMYWVRQAPGKGLEWVSAISPGGGSTDYADSVKGRFTISRDNSKNTLYLQMNSLRPEDTALYYCAADTLYTSLTWYSYWGQGTLVTVSS | 0.021
